target: Recombinant human IDO (Homo sapiens, UniProt P14902); assay: Bridge-IT tryptophan fluorescence assay of human IDO-1 inhibition; conditions: recombinant human IDO 7.5 nM, L-tryptophan
Sequence (P14902 whole entry): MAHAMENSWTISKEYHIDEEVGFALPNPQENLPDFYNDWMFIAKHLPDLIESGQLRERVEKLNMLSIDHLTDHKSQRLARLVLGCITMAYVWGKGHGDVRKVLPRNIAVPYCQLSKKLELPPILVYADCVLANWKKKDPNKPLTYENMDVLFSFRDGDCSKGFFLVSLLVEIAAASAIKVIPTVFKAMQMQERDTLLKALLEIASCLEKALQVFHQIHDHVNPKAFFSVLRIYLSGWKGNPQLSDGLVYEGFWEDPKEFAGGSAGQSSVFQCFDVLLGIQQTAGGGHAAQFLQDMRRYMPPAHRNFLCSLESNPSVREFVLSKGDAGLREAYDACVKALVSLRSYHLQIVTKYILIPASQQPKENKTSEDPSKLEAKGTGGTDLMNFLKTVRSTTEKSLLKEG

- Compound: "NC(=O)CC1CCC(F)(CCC2c3ccccc3-c3cncn32)CC1 (single isomer, unassigned) [Compound 112b]"
  Target or test system: "Recombinant human IDO (Homo sapiens, UniProt P14902)"
  IC50: "< 0.1 µM"
- Compound: "COc1ccc2c(n1)C(CC(N)C1CCCCC1)n1cncc1-2 (single isomer, unassigned) [Compound 118b]"
  Target or test system: "Recombinant human IDO (Homo sapiens, UniProt P14902)"
  IC50: "0.1 to 1 µM"
- Compound: "O[C@H]1CC[C@](F)(CC[C@@H]2c3ccccc3-c3cncn32)CC1 [Compound 14a]"
  Target or test system: "Recombinant human IDO (Homo sapiens, UniProt P14902)"
  IC50: "> 1 µM"
- Compound: "OC(CC1c2c(Cl)cccc2-c2cncn21)C1(F)CCCCC1 (single isomer, unassigned) [Compound 83b]"
  Target or test system: "Recombinant human IDO (Homo sapiens, UniProt P14902)"
  IC50: "0.1 to 1 µM"
- Compound: "c1cnc2c(c1)-c1cncn1C2CCC1CCCCC1 (stereo not drawn)"
  Target or test system: "Recombinant human IDO (Homo sapiens, UniProt P14902)"
  IC50: "0.1 to 1 µM"
- Compound: "OCC1CCC(F)(CCC2c3c(F)cccc3-c3cncn32)CC1 (single isomer, unassigned) [Compound 84c]"
  Target or test system: "Recombinant human IDO (Homo sapiens, UniProt P14902)"
  IC50: "< 0.1 µM"
- Compound: "OC(CC1c2nc(OC3CC3)ccc2-c2cncn21)C1CCCCC1 (mixture of isomers) [Compound 68b]"
  Target or test system: "Recombinant human IDO (Homo sapiens, UniProt P14902)"
  IC50: "> 1 µM"
- Compound: "COc1ccc2c(n1)C(CCC1(F)CCC(F)(F)CC1)n1cncc1-2 (single isomer, unassigned) [Compound 34a]"
  Target or test system: "Recombinant human IDO (Homo sapiens, UniProt P14902)"
  IC50: "< 0.1 µM"
- Compound: "NC(=O)CC1CCC(F)(CCC2c3c(F)cccc3-c3cncn32)CC1 (single isomer, unassigned) [Compound 116d]"
  Target or test system: "Recombinant human IDO (Homo sapiens, UniProt P14902)"
  IC50: "< 0.1 µM"
- Compound: "NC(=O)C1CCC(F)(CCC2c3c(Cl)cccc3-c3cncn32)CC1 (single isomer, unassigned) [Compound 99d]"
  Target or test system: "Recombinant human IDO (Homo sapiens, UniProt P14902)"
  IC50: "> 1 µM"
- Compound: "OC(CC1c2ncccc2-c2cncn21)C1CCOCC1 (single isomer, unassigned) [Compound 92b]"
  Target or test system: "Recombinant human IDO (Homo sapiens, UniProt P14902)"
  IC50: "> 1 µM"
- Compound: "OC(CC1c2nc(F)ccc2-c2cncn21)C1CCC(F)(F)CC1 (single isomer, unassigned) [Compound 26b]"
  Target or test system: "Recombinant human IDO (Homo sapiens, UniProt P14902)"
  IC50: "0.1 to 1 µM"
- Compound: "OC1CCC(F)(CCC2c3c(F)cccc3-c3cncn32)CC1 (single isomer, unassigned) [Compound 16a]"
  Target or test system: "Recombinant human IDO (Homo sapiens, UniProt P14902)"
  IC50: "< 0.1 µM"
- Compound: "O=C(C1CCC(F)(CCC2c3c(Cl)cccc3-c3cncn32)CC1)N1CCCCC1 (single isomer, unassigned) [Compound 115b]"
  Target or test system: "Recombinant human IDO (Homo sapiens, UniProt P14902)"
  IC50: "< 0.1 µM"
- Compound: "Fc1cccc2c1C(CC(F)(F)C1CCCCC1)n1cncc1-2 (racemic)"
  Target or test system: "Recombinant human IDO (Homo sapiens, UniProt P14902)"
  IC50: "0.1 to 1 µM"

* * *

Collected IC50 values appear next to each entry.
target: Recombinant human IDO (Homo sapiens); experiment: Bridge-IT tryptophan fluorescence assay of human IDO-1 inhibition; details: recombinant human IDO 7.5 nM, L-tryptophan
Measured property: IC50

- Compound: "COc1ccc(F)c2c1-c1cncn1C2CCC1(F)CCCCC1 (single isomer, unassigned) [Compound 45b]"
  Measured property: "IC50"
  Readout value: "> 1 µM"
- Compound: "NC(=O)C1CCC(F)(CCC2c3ccccc3-c3cncn32)CC1 (single isomer, unassigned) [Compound 79a]"
  Measured property: "IC50"
  Readout value: "> 1 µM"
- Compound: "CN(C)C(=O)C1CCC(F)(CCC2c3c(Cl)cccc3-c3cncn32)CC1 (single isomer, unassigned) [Compound 114d]"
  Measured property: "IC50"
  Readout value: "> 1 µM"
- Compound: "OC(CC1c2ncccc2-c2cncn21)C1CCC(F)(F)CC1 (single isomer, unassigned) [Compound 22c]"
  Measured property: "IC50"
  Readout value: "> 1 µM"
- Compound: "OC(CC1c2nc(OC3CC3)ccc2-c2cncn21)C1CCC(F)(F)CC1 (single isomer, unassigned) [Compound 69a]"
  Measured property: "IC50"
  Readout value: "0.1 to 1 µM"
- Compound: "OC(CC1c2nc(Cl)ccc2-c2cncn21)C1CCC(F)(F)CC1 (single isomer, unassigned) [Compound 52a]"
  Measured property: "IC50"
  Readout value: "0.1 to 1 µM"
- Compound: "O=C(C1CCC(F)(CCC2c3c(F)cccc3-c3cncn32)CC1)N1CCCCC1 (stereo not shown) [Compound 110a]"
  Measured property: "IC50"
  Readout value: "< 0.1 µM"

* * *

Measured pIC50 of individual entries
biological target: Recombinant human IDO (Homo sapiens); experiment: Bridge-IT tryptophan fluorescence assay of human IDO-1 inhibition; details: recombinant human IDO 7.5 nM, L-tryptophan
pIC50: −log10 of the molar value.

- Molecule: "NC(=O)C1CCC(F)(CCC2c3c(Cl)cccc3-c3cncn32)CC1 (single isomer, unassigned) [Compound 99b]"
  pIC50: "6.00 to 7.00"
- Molecule: "OC1CCC(CCC2c3ncccc3-c3cncn32)CC1 (stereo not drawn) [Compound 47]"
  pIC50: "< 6.00"
- Molecule: "OC(CC1c2nc(Cl)ccc2-c2cncn21)C1CCCCC1 (single isomer, unassigned) [Compound 55d]"
  pIC50: "6.00 to 7.00"
- Molecule: "COc1cc2c(cn1)-c1cncn1C2CCC1(F)CCCCC1 (single isomer, unassigned) [Compound 15a]"
  pIC50: "< 6.00"
- Molecule: "CC(C)[C@H](N)C(=O)N1CCC(F)(CCC2c3ccccc3-c3cncn32)CC1 (single isomer, unassigned) [Compound 89a]"
  pIC50: "< 6.00"
- Molecule: "FC1(CCC2c3c(Cl)cccc3-c3cncn32)CCC2(CC1)CC2 (single isomer, unassigned) [Compound 91b]"
  pIC50: "< 6.00"
- Molecule: "OC(CC1c2nc(C3CC3)ccc2-c2cncn21)C1CCCCC1 (single isomer, unassigned) [Compound 56c]"
  pIC50: "< 6.00"
- Molecule: "OC(CC1c2nc(C(F)(F)F)ccc2-c2cncn21)C1CCC(F)(F)CC1 (single isomer, unassigned) [Compound 77b]"
  pIC50: "< 6.00"
- Molecule: "COc1cc2c(cn1)-c1cncn1C2CC(O)C1CCCCC1 (stereo not drawn) [Compound 11b]"
  pIC50: "< 6.00"
- Molecule: "OCC1CCC(F)(CCC2c3ccccc3-c3cncn32)CC1 (single isomer, unassigned) [Compound 59d]"
  pIC50: "< 6.00"
- Molecule: "OC(CC1c2nc(C3CC3)ccc2-c2cncn21)C1CCCCC1 (single isomer, unassigned) [Compound 56b]"
  pIC50: "> 7.00"
- Molecule: "CC(C)(O)C1CCC(F)(CCC2c3ccccc3-c3cncn32)CC1 (single isomer, unassigned) [Compound 61d]"
  pIC50: "> 7.00"
- Molecule: "OCC1CCC(F)(CCC2c3c(Cl)cccc3-c3cncn32)CC1 (single isomer, unassigned) [Compound 105c]"
  pIC50: "> 7.00"
- Molecule: "OC(CC1c2c(ccnc2F)-c2cncn21)C1CCCCC1 (stereo not drawn) [Compound 2a]"
  pIC50: "< 6.00"
- Molecule: "FC1(CCC2c3c(Cl)cccc3-c3cncn32)CCC2(CC1)CC2 (single isomer, unassigned) [Compound 91a]"
  pIC50: "< 6.00"

* * *

Molecular target: Recombinant human IDO (Homo sapiens)
Assay: Bridge-IT tryptophan fluorescence assay of human IDO-1 inhibition
Conditions: recombinant human IDO 7.5 nM, L-tryptophan
Procedure: Measurement of human IDO-1 inhibition is performed in 384 well format using the Bridge-IT® tryptophan Fluorescence Assay (Mediomics, LLC, St. Louis, Mo., U.S.A.). The reaction is initiated by the addition of L-Tryptophan (Sigma) at a final concentration of 100 μM in assay buffer. […] Measurement of human IDO-1 inhibition was performed in 384-well format using the BRIDGE-IT® tryptophan Fluorescence Assay (Mediomics, LLC, St. Louis, Mo., U.S.A.). […]
IC50 values, listed per item

- Compound: "OC(CC1c2ncccc2-c2cncn21)C1CCC(F)(F)CC1 (single isomer, unassigned) [Compound 22b]"
  IC50: "> 1000 nM"
- Compound: "OC1CCC(F)(CCC2c3cc(F)ncc3-c3cncn32)CC1 (single isomer, unassigned) [Compound 58a]"
  IC50: "> 1000 nM"
- Compound: "OC1CCC(F)(CCC2c3c(F)ccc(F)c3-c3cncn32)CC1 (single isomer, unassigned) [Compound 38b]"
  IC50: "100 to 1000 nM"
- Compound: "COc1cc2c(cn1)-c1cncn1C2CCC1(F)CCCCC1 (single isomer, unassigned) [Compound 15b]"
  IC50: "> 1000 nM"
- Compound: "NC(CC1c2ncccc2-c2cncn21)C1CCCCC1 (stereo not shown) [Compound 21a]"
  IC50: "> 1000 nM"
- Compound: "FC1(CCC2c3c(Cl)cccc3-c3cncn32)CCCCC1 (single isomer, unassigned) [Compound 70a]"
  IC50: "> 1000 nM"
- Compound: "COc1cccc2c1-c1cncn1C2CCC1(F)CCCCC1 (single isomer, unassigned) [Compound 42b]"
  IC50: "100 to 1000 nM"

The reported numbers originate from patent US9771370B2.
